- studySystem: Cdk6/CyclinD3 (Homo sapiens (Human), UniProt Q00534)
- Sequence (Q00534 whole entry): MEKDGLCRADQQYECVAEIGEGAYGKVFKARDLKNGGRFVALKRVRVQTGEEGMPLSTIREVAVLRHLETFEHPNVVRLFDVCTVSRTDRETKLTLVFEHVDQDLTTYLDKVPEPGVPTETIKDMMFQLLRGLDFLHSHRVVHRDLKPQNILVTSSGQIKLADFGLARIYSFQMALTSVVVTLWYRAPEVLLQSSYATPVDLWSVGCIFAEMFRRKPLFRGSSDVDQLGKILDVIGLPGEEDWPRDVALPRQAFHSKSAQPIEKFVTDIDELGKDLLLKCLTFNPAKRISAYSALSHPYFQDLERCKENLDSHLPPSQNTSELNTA
- Sequence (P30281 whole entry partner): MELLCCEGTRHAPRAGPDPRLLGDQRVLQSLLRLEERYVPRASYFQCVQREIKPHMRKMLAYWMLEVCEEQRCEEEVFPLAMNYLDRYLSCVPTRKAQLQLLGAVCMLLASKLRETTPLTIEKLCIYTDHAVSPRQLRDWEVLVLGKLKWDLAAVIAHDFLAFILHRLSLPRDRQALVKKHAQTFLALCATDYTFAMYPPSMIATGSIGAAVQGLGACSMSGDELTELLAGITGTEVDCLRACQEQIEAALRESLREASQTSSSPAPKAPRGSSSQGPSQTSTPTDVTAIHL
- assayName: Cdk6 kinase inhibition assay with recombinant Cdk6/CyclinD3, Rb substrate, [33P]-ATP filter plate
- studyConditions: 25 μM ATP, read-out: Cdk 6 IC50
parameter: IC50 (nM)

- c1cc2c3cnc(Nc4ccc(N5CCC(NC6CC6)CC5)cn4)nc3n(C3CCCC3)c2cn1: 12

(a) O=C(O)CN1CCN(Cc2ccc(Nc3ncc4c5ccncc5n(C5CCCC5)c4n3)nc2)CC1
(b) OCCNc1ccc(Nc2ncc3c4ccncc4n(C4CCCC4)c3n2)nn1
(c) Cc1cc(N2CCNCC2)cnc1Nc1ncc2c3ccncc3n(C3CCCC3)c2n1
Put the compounds in ascending order of IC50. Answer with the labels in sequence, matching the requested order.
a, b, c
(a: 3.3 nM, b: 16.1 nM, c: 406 nM)

---

- studySystem: Cdk6/CyclinD3 (Homo sapiens (Human), UniProt Q00534)
- assayName: Cdk6 kinase inhibition assay with recombinant Cdk6/CyclinD3, Rb substrate, [33P]-ATP filter plate
- studyConditions: 25 μM ATP, read-out: Cdk 6 IC50
parameter: IC50 (nM)

Guide cases for IC50, answers given:
* OCC1CCN(c2ccc(Nc3ncc4c5ccncc5n(C5CCCC5)c4n3)nn2)CC1 [Example 103] | 2.6
* CC[C@@H](C)n1c2cnccc2c2cnc(Nc3ccc(N4CC[C@@H](O)C4)nn3)nc21 [Example 319] | 49
* CNC1CCN(c2ccc(Nc3ncc4c5ccncc5n(C5CCC5)c4n3)nn2)CC1 [Example 434] | 19
* Oc1ccc2c3cnc(Nc4ccc(N5CCNCC5)cn4)nc3n(C3CCCC3)c2n1 [Example 183] | 104

(a) Fc1nccc2c3cnc(Nc4ccc(CN5CCNCC5)cn4)nc3n(C3CCCC3)c12 [Example 213]
(b) CC1CN(c2ccc(Nc3ncc4c5ccccc5n(C5CCCC5)c4n3)nc2)CC(C)N1 (centres unmarked) [Example 303]
(c) N[C@H]1CCN(c2ccc(Nc3ncc4c5ccncc5n(C5CCCC5)c4n3)nn2)C1 [Example 108]
(d) Cn1c(=O)ccc2c3cnc(Nc4ccc(N5CC[C@@H](O)C5)cn4)nc3n(C3CCCC3)c21 [Example 185]
Descending sort on IC50 required. Reply with the item labels sorted in the order that was asked for.
d, a, b, c

(a) Cn1c(=O)ccc2c3cnc(Nc4ccc(N5CCNCC5)cn4)nc3n(C3CCCC3)c21 [Example 184]
(b) COc1ccc(-c2ccc(Nc3ncc4c5ccncc5n(C5CCCC5)c4n3)nn2)cn1 [Example 261]
(c) c1ccc2c(c1)c1cnc(Nc3ccc(N4CCNCC4)cc3)nc1n2C1CCCCC1 [Example 21]
Arrange the 3 compounds from largest to smallest IC50. Please express your ranking as an ordered list of the labels.
b, a, c

---

- studySystem: Cdk4/CyclinD1 (Homo sapiens (Human))
- assayName: Cdk4 kinase inhibition assay with recombinant Cdk4/CyclinD1, Rb substrate, [33P]-ATP filter plate
- studyConditions: 25 μM ATP, read-out: Cdk 4 IC50
parameter: IC50 (µM)

(A) CC1(C)CN(c2ccc(Nc3ncc4c5ccncc5n([C@@H]5CCOC5)c4n3)nc2)CCN1 [Example 432]
(B) O[C@@H]1CCN(c2ccc(Nc3ncc4c5ccncc5n([C@H]5CCC[C@@H]5O)c4n3)nc2)C1 [Example 403]
Which numeric IC50 is bigger, that of A or that of B ? # answer = label of selected item
B

(P) C[C@H]1CN(c2ccc(Nc3ncc4c5ccncc5n(C5CCCC5)c4n3)nc2)CCN1 [Example 62]
(Q) CN(C)C1CCN(c2ccc(Nc3ncc4c5ccncc5n(C5CCS(=O)(=O)CC5)c4n3)nc2)CC1 [Example 280]
// compare: P vs Q , metric IC50, want the smaller Let me know the label of the one you choose.
P

---

- studySystem: Cdk4/CyclinD1 (Homo sapiens (Human))
- assayName: Cdk4 kinase inhibition assay with recombinant Cdk4/CyclinD1, Rb substrate, [33P]-ATP filter plate
- studyConditions: 25 μM ATP, read-out: Cdk 4 IC50
pIC50: −log10 of the molar value.
parameter: pIC50

// known answers, use as guide
• CC[C@@H](C)n1c2cnccc2c2cnc(Nc3ccc(N4CCNC(C)(C)C4)cn3)nc21 [Example 342] = 7.06
• c1cc2c3cnc(Nc4ccc(N[C@H]5CCNC5)cn4)nc3n(C3CCCC3)c2cn1 [Example 64] = 8.55

(1) CNC1CCN(c2ccc(Nc3ncc4c5ccncc5n([C@@H](C)CO)c4n3)nn2)CC1 [Example 373]
(2) COCCn1c2cnccc2c2cnc(Nc3ccc(N4CCC(N(C)C)CC4)nn3)nc21 [Example 315]
(3) O[C@@H]1CCN(c2ccc(Nc3ncc4c5ccncc5n(C5CCCC5)c4n3)nn2)C1 [Example 18]
Put the compounds in ascending order of pIC50. The labels, placed in the requested order, form the answer.
2, 1, 3

(1) CNC1CCN(c2ccc(Nc3ncc4c5ccncc5n(C5CCCC5)c4n3)nc2)CC1 [Example 75]
(2) CC[C@H](C)n1c2cnccc2c2cnc(Nc3ccc(N4CCNCC4)cn3)nc21 [Example 330]
(3) CCCNC1CCN(c2ccc(Nc3ncc4c5ccncc5n(C5CCCC5)c4n3)nc2)CC1 [Example 466]
Exam item: list the entries in increasing order of pIC50. Write the labels, ordered according to the request.
2, 3, 1
(2: 6.61, 3: 8.33, 1: 8.85)

---

- studySystem: Cdk4/CyclinD1 (Homo sapiens (Human))
- assayName: Cdk4 kinase inhibition assay with recombinant Cdk4/CyclinD1, Rb substrate, [33P]-ATP filter plate
- Type: biochemical
- studyConditions: 25 μM ATP, read-out: Cdk 4 IC50
pIC50: −log10 of the molar value.
parameter: pIC50

The cases that follow already have their pIC50 on record.
- C[C@@H](CO)n1c2cnccc2c2cnc(Nc3ccc(N4CCC(N(C)C)CC4)nn3)nc21: 6.89
- O[C@@H]1CCN(c2ccc(Nc3ncc4c5ccncc5n([C@H]5CCOC5)c4n3)nn2)C1: 6.47
- c1cc2c3cnc(Nc4ccc(N5CCCC5)nn4)nc3n(C3CCCC3)c2cn1: 8.36

(I) N#CC1CCN(c2ccc(Nc3ncc4c5ccncc5n(C5CCCC5)c4n3)nn2)C1 (centres unmarked)
(II) CN(C)C1CCN(c2ccc(Nc3ncc4c5ccncc5n(C5CCS(=O)(=O)CC5)c4n3)nn2)CC1
(III) C[C@@H](CO)n1c2cnccc2c2cnc(Nc3ccc(N4CCNC(C)(C)C4)cn3)nc21
(IV) Cc1cc(Nc2ncc3c4ccncc4n(C4CCCC4)c3n2)cnc1N1CCNCC1
(V) COCC(C)(C)n1c2cnccc2c2cnc(Nc3ccc(N4CCC(N(C)C)CC4)cn3)nc21
rank_up(items): orders items by reported pIC50 in ascending numerical order. Enter labels, ranked according to the request.
II, III, V, I, IV
(II: 6.23, III: 7.07, V: 7.72, I: 8.38, IV: 9.04)

---

- studySystem: Cdk6/CyclinD3 (Homo sapiens (Human))
- assayName: Cdk6 kinase inhibition assay with recombinant Cdk6/CyclinD3, Rb substrate, [33P]-ATP filter plate
- studyConditions: 25 μM ATP, read-out: Cdk 6 IC50
parameter: IC50 (nM)

The following molecules have reported results that may help.
* C[C@H](C1CCCCC1)n1c2cnccc2c2cnc(Nc3ccc(N4CCNCC4)cn3)nc21 | 61
* C[C@H]1CN(c2ccc(Nc3ncc4c5ccncc5n(C5CCC5)c4n3)nc2)CCN1 | 10

(I) CC1CCC(n2c3cnccc3c3cnc(Nc4ccc(N5CCNCC5)cn4)nc32)CC1 (stereo not shown)
(II) O[C@@H]1CCC[C@@H]1n1c2cnccc2c2cnc(Nc3ccc(N4CCNCC4)cn3)nc21
Lab note: check whether I or II has the lower measured IC50. # answer = label of selected item
I
(I: 4.4 nM, II: 58 nM)

---

- studySystem: Cdk4/CyclinD1 (Homo sapiens (Human), UniProt P11802)
- Sequence (P11802 whole entry): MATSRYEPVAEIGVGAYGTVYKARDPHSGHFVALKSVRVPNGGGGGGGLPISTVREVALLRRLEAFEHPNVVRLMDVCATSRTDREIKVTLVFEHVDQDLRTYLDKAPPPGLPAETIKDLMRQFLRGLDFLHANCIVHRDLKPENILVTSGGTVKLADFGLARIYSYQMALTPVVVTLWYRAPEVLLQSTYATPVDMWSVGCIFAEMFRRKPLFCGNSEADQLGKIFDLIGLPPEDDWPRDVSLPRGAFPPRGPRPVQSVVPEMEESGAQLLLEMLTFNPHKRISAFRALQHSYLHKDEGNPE
- Sequence (P24385 whole entry partner): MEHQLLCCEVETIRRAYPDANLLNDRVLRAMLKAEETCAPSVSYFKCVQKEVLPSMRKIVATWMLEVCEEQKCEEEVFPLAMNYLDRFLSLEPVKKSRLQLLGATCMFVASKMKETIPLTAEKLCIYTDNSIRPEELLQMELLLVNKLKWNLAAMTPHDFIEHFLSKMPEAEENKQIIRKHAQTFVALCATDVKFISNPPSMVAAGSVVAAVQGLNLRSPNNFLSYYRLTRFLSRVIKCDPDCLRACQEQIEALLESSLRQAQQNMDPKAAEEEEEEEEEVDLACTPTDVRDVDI
- assayName: Cdk4 kinase inhibition assay with recombinant Cdk4/CyclinD1, Rb substrate, [33P]-ATP filter plate
- studyConditions: 25 μM ATP, read-out: Cdk 4 IC50
pIC50: −log10 of the molar value.
parameter: pIC50

Please review the entries below; each comes with its answer.
- O[C@@H]1CCN(c2ccc(Nc3ncc4c5ccncc5n([C@@H]5CCOC5)c4n3)nn2)C1: 6.66
- COCC(C)(C)n1c2cnccc2c2cnc(Nc3ccc(N4CCC(N(C)C)CC4)nn3)nc21: 6.00

(P) C[C@@H](O)Cn1c2cnccc2c2cnc(Nc3ccc(N4CCNCC4)cn3)nc21
(Q) CCN(CC)C1CCN(c2ccc(Nc3ncc4c5ccnc(O)c5n(C5CCCC5)c4n3)nn2)CC1
Of P and Q , which shows the smaller pIC50 value? Refer to your chosen entry by its label in the reply.
P
(P: 6.44, Q: 8.55)

---

- studySystem: Cdk4/CyclinD1 (Homo sapiens (Human), UniProt P11802)
- assayName: Cdk4 kinase inhibition assay with recombinant Cdk4/CyclinD1, Rb substrate, [33P]-ATP filter plate
- Type: biochemical
- studyConditions: 25 μM ATP, read-out: Cdk 4 IC50
parameter: IC50 (nM)

The following molecules have reported results that may help.
• O[C@H]1CCCN(C2CCN(c3ccc(Nc4ncc5c6ccncc6n(C6CCCC6)c5n4)nn3)CC2)C1 = 7
• CC1(C)CN(c2ccc(Nc3ncc4c5ccncc5n([C@H]5CCC[C@H]5O)c4n3)nc2)CCN1 = 66
• O=C(Cc1ccc(Nc2ncc3c4ccncc4n(C4CCCC4)c3n2)nc1)N1CCNCC1 = 7.4
• CN(CC(=O)O)C1CCN(c2ccc(Nc3ncc4c5ccncc5n(C5CCCC5)c4n3)nc2)CC1 = 4.1
• c1cc2c3cnc(Nc4ccc(N5CCC(N6CCCC6)CC5)cn4)nc3n(C3CCCC3)c2cn1 = 5.9

(P) CCC(CC)n1c2cnccc2c2cnc(Nc3ccc(N4CCNCC4)cn3)nc21
(Q) CN(C)C1CCN(c2ccc(Nc3ncc4c5ccncc5n(C5CCCC5)c4n3)nc2)CC1
Param pair: P , Q . Output: the one whose IC50 is numerically greater. The response must carry the label of the picked entry.
Q
(Q: 9.6 nM, P: 3.6 nM)

Recorded values, source patent US8841312B2.
